SYSTEM_UNDER_TEST: Sirt6 (Homo sapiens, UniProt Q8N6T7)
Construct: purchased CycLex CY-1156V2
Sequence (Q8N6T7 whole entry): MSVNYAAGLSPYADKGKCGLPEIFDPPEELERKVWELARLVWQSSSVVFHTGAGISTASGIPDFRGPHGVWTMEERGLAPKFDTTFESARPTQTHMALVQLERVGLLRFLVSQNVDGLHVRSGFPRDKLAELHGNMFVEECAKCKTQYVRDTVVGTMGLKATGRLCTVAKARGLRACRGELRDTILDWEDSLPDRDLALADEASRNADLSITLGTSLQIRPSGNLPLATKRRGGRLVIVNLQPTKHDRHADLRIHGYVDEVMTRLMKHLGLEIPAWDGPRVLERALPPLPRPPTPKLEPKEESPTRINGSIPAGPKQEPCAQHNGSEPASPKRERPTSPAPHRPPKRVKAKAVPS
EXPERIMENT_DESCRIPTION: Measurement of Sirt6 Activity (CycLex Sirt6 Deacetylase Fluorometric Assay Kit)
Format: biochemical
PARTICULARS: compound at 10 μM; fluorescence relative to the group without compound treatment (positive control group)
Procedure: LC-MS (ESI, m/z)=430.1 (M+H^+) Experimental Example 1: Measurement of Sirt6 Activity Compounds having Sirt6 activity were selected using a CycLex Sirt6 Deacetylase Fluorometric Assay Kit (cat. CY-1156V2) manufactured by CycLex. When a fluorescent-attached acetylated lysine substrate is treated with Sirt6 enzyme, Sirt6 deacetylates the acetylated lysine of the substrate and lysylendopeptidase cleaves the C-terminal peptide bond connected to the lysine, by which fluorescence is emitted. […]
Returns Fulfilled if the recorded Sirt6 Activity (% activity, 10 μM) is greater than or equal to 300 % activity, and Not fulfilled otherwise.

MOLECULE | ASSIGNED_LABEL
CCS(=O)(=O)NC1CCCCN(c2nn(C3CCCCC3)c(=O)c3ccccc23)C1 (centres unmarked) | Not fulfilled
CC(C)(C(=O)O)c1cccc(-c2nn(-c3ccccc3F)c(=O)c3ccccc23)c1 | Not fulfilled
CS(=O)(=O)c1cccc(-c2nn(-c3ccc(F)cc3F)c(=O)c3ccccc23)c1 | Fulfilled
CS(=O)(=O)c1cccc(-c2nn(-c3ccccc3)c(=O)c3ccc(F)cc23)c1 | Not fulfilled
CC(C)(C)/[N+]([O-])=C/c1cccc(-c2nn(-c3c(F)cccc3F)c(=O)c3ccccc23)c1 | Not fulfilled

====

SYSTEM_UNDER_TEST: Sirt6 (Homo sapiens, UniProt Q8N6T7)
Construct: purchased CycLex CY-1156V2
EXPERIMENT_DESCRIPTION: Measurement of Sirt6 Activity (CycLex Sirt6 Deacetylase Fluorometric Assay Kit)
Assay type: biochemical
PARTICULARS: compound at 10 μM; fluorescence relative to the group without compound treatment (positive control group)
Returns yes (1) if the recorded Sirt6 Activity (% activity, 10 μM) is greater than or equal to 200 % activity, and no (0) otherwise.

COMPOUND | ASSIGNED_LABEL
O=c1c2ccccc2c(-c2ccc(F)c(/C=[N+](\[O-])Cc3ccccc3)c2)nn1-c1ccc(F)cc1 [Example 54] | no (0)
O=c1c2ccccc2c(N2CCCCC(O)C2)nn1-c1ccc(Cl)cc1 (stereo not shown) [Example 196] | no (0)
O=C(O)C1(c2cccc(-c3nn(-c4ccc(F)cc4F)c(=O)c4ccccc34)c2)CCCC1 [Example 208] | no (0)
CC(C)(C)/[N+]([O-])=C/c1cccc(-c2nn(-c3cccc(F)c3)c(=O)c3ccccc23)c1 [Example 29] | no (0)
CC(C)(C(N)=O)c1cccc(-c2nn(-c3ccc(F)cc3F)c(=O)c3ccccc23)c1 [Example 188] | yes (1)
CCS(=O)(=O)Nc1cccc(-c2nn(-c3ccc(F)cc3)c(=O)c3ccccc23)c1 [Example 11] | no (0)
CN(C)S(=O)(=O)c1cccc(-c2nn(-c3ccc(F)cc3F)c(=O)c3ccccc23)c1 [Example 93] | yes (1)
CCNS(=O)(=O)c1cccc(-c2nn(-c3ccc(F)cc3F)c(=O)c3ccc(F)cc23)c1 [Example 124] | no (0)
O=c1c2ccccc2c(-c2cccnc2)nn1-c1c(F)cccc1F [Example 116] | yes (1)
CC(C)(C)/[N+]([O-])=C/c1ccccc1-c1nn(-c2ccc(F)cc2)c(=O)c2ccccc12 [Example 42] | no (0)
Cl.NC1CCCCN(c2nn(-c3ccc(F)cc3F)c(=O)c3ccccc23)C1 (stereo not shown) [Example 167] | yes (1)
N#CC1CCCCN(c2nn(-c3ccc(Cl)cc3F)c(=O)c3ccccc23)C1 (stereo not shown) [Example 203] | no (0)
CS(=O)(=O)c1cccc(-c2nn(C3CCCCC3)c(=O)c3ccccc23)c1 [Example 154] | yes (1)
CCS(=O)(=O)Nc1cncc(-c2nn(-c3ccc(F)cc3)c(=O)c3ccccc23)c1 [Example 82] | no (0)
CC(C)(C(=O)O)C1CCCN(c2nn(-c3ccc(Cl)cc3)c(=O)c3ccccc23)C1 (stereo not shown) [Example 209] | no (0)
CCS(=O)(=O)c1cccc(-c2nn(-c3ccccc3F)c(=O)c3ccccc23)c1 [Example 98] | yes (1)
O=C(O)C1(c2cccc(-c3nn(-c4ccc(F)cc4F)c(=O)c4ccccc34)c2)CCC1 [Example 207] | yes (1)
NC(=O)C1(c2cccc(-c3nn(-c4ccc(Cl)cc4)c(=O)c4ccccc34)c2)CC1 [Example 198] | yes (1)
Cl.N[C@H]1CCCN(c2nn(C3CCCCC3)c(=O)c3ccccc23)C1 [Example 146] | no (0)
CCS(=O)(=O)Nc1cccc(-c2nn(C(C)C)c(=O)c3ccccc23)c1 [Example 132] | no (0)
CN[C@@H]1CCCCN(c2nn(-c3ccc(F)cc3F)c(=O)c3ccccc23)C1 [Example 189] | yes (1)
CC(C)/[N+]([O-])=C/c1cccc(-c2nn(-c3ccccc3)c(=O)c3ccccc23)c1 [Example 14] | no (0)
CC(C)(C(=O)NC1CCCCC1)c1cccc(-c2nn(-c3ccc(F)cc3F)c(=O)c3ccccc23)c1 [Example 180] | no (0)
CC(C)S(=O)(=O)Nc1cccc(-c2nn(-c3ccc(F)cc3)c(=O)c3ccccc23)c1 [Example 67] | no (0)
COC(=O)c1cccc(-c2nn(-c3ccc(F)cc3)c(=O)c3ccccc23)c1 [Example 66] | no (0)
CCS(=O)(=O)c1cccc(-c2nn(-c3ccc(F)cc3F)c(=O)c3ccc(F)cc23)c1 [Example 123] | yes (1)

====

Reported Sirt6 Activity (% activity, 10 μM) values for a set of compounds
SYSTEM_UNDER_TEST: Sirt6 (Homo sapiens)
Construct: purchased CycLex CY-1156V2
EXPERIMENT_DESCRIPTION: Measurement of Sirt6 Activity (CycLex Sirt6 Deacetylase Fluorometric Assay Kit)
Format: biochemical
PARTICULARS: compound at 10 μM; fluorescence relative to the group without compound treatment (positive control group)
REPORTED_ENDPOINT: Sirt6 Activity (% activity, 10 μM) (% activity)

COMPOUND | REPORTED_ENDPOINT | QUANTITATIVE_RESULT
CNS(=O)(=O)c1cccc(-c2nn(-c3ccc(F)cc3F)c(=O)c3cc(F)ccc23)c1 [Example 122] | Sirt6 Activity (% activity, 10 μM) | 177
CC(C)/[N+]([O-])=C/c1cccc(-c2nn(-c3ccc(-c4ccccc4)cc3)c(=O)c3ccccc23)c1 [Example 85] | Sirt6 Activity (% activity, 10 μM) | 118
COC(=O)NS(=O)(=O)Nc1cccc(-c2nn(-c3ccc(F)cc3F)c(=O)c3ccccc23)c1 [Example 26] | Sirt6 Activity (% activity, 10 μM) | 180

====

SYSTEM_UNDER_TEST: Sirt6 (Homo sapiens, UniProt Q8N6T7)
Construct: purchased CycLex CY-1156V2
EXPERIMENT_DESCRIPTION: Measurement of Sirt6 Activity (CycLex Sirt6 Deacetylase Fluorometric Assay Kit)
Format: biochemical
PARTICULARS: compound at 10 μM; fluorescence relative to the group without compound treatment (positive control group)
Reported Sirt6 Activity (% activity, 10 μM) values for a set of compounds
REPORTED_ENDPOINT: Sirt6 Activity (% activity, 10 μM) (% activity)

COMPOUND | QUANTITATIVE_RESULT
CC(C)/[N+]([O-])=C/c1ccc(-c2nn(-c3ccc(F)cc3)c(=O)c3ccccc23)o1 [Example 48] | 107
Cl.N[C@@H]1CCCCN(c2nn(-c3ccc(Cl)cc3F)c(=O)c3ccccc23)C1 [Example 202] | 261.73
C/[N+]([O-])=C/c1ccc(-c2nn(-c3ccc(F)cc3)c(=O)c3ccccc23)s1 [Example 45] | 195
CCS(=O)(=O)NC1CCCCN(c2nn(-c3ccc(F)cc3)c(=O)c3ccccc23)C1 (centres unmarked) [Example 141] | 212.55
CC(C)(C(=O)O)c1cccc(-c2nn(C3CCCCC3)c(=O)c3ccccc23)c1 [Example 160] | 289.8
CCS(=O)(=O)Nc1cccc(-c2nn(-c3ccccc3)c(=O)c3ccccc23)c1 [Example 1] | 170
CC(C)(C)/[N+]([O-])=C/c1ccc(-c2nn(-c3ccc(F)cc3)c(=O)c3ccccc23)s1 [Example 47] | 132
C/[N+]([O-])=C\c1ccc(-c2nn(-c3ccc(F)cc3)c(=O)c3ccccc23)cc1 [Example 36] | 142
CC(C)/[N+]([O-])=C/c1ccc(-c2nn(-c3ccc(F)cc3)c(=O)c3ccccc23)s1 [Example 46] | 154
CC(C)(C(=O)O)C1CN(c2nn(-c3ccc(F)cc3F)c(=O)c3ccccc23)CCN1 (centres unmarked) [Example 219] | 114.60
CN(c1cccc(-c2nn(-c3ccc(F)cc3)c(=O)c3ccccc23)c1)S(=O)(=O)C(F)(F)F [Example 78] | 122
CN1CCN(c2nn(-c3ccc(F)cc3F)c(=O)c3ccccc23)CC1C(C)(C)C(=O)O (centres unmarked) [Example 220] | 125.80
CC(C)(C)/[N+]([O-])=C/c1cccc(-c2nn(-c3ccc(F)cc3F)c(=O)c3ccccc23)c1 [Example 23] | 192
CNS(=O)(=O)N(C)c1cccc(-c2nn(-c3ccc(F)cc3)c(=O)c3ccccc23)c1 [Example 80] | 216
CNS(=O)(=O)c1cccc(-c2nn(-c3ccc(F)cc3F)c(=O)c3ccccc23)c1 [Example 91] | 272
O=C1CCCCN(c2nn(-c3ccc(F)cc3F)c(=O)c3ccccc23)C1 [Example 193] | 206.10
C/[N+]([O-])=C/c1cccc(-c2nn(-c3ccc(-c4ccccc4)cc3)c(=O)c3ccccc23)c1 [Example 84] | 123
COc1ccc(-c2nn(-c3ccc(F)cc3)c(=O)c3ccccc23)cc1/C=[N+](\[O-])Cc1ccccc1 [Example 50] | 105
CC(C)(C(=O)O)c1cccc(-c2nn(-c3ccc(C4CC4)cc3)c(=O)c3ccccc23)c1 [Example 206] | 182.70
CC(C)S(=O)(=O)N(C)c1cccc(-c2nn(-c3ccc(F)cc3)c(=O)c3ccccc23)c1 [Example 73] | 124
